- target_system: endogenous cellular BACE2 (Rattus norvegicus)
- Construct: endogenous cellular BACE2 in the Ins1e rat cell line; endogenous in cells; host or cells: INS-TMEM27 (INS1e-derived rat insulinoma cell line with doxycycline-inducible full-length human TMEM27)
- Sequence (Q6IE75 63-514): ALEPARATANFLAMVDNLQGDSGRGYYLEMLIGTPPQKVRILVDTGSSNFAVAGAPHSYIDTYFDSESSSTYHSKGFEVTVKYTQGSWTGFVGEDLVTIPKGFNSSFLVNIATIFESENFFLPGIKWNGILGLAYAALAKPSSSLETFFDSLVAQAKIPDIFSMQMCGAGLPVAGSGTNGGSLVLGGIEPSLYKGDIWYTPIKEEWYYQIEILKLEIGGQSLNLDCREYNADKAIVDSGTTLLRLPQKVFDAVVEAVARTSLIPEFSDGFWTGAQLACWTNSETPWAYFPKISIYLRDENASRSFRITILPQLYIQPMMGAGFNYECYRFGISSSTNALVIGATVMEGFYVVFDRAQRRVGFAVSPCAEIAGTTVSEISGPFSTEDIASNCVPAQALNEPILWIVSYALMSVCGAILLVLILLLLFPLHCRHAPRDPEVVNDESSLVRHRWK
- run_description: Assay for BACE inhibition by measuring cellular TMEM27 cleavage
- Type: cell-based
- particulars: INS-TMEM27 (INS1e-derived) cells, shed human TMEM27 in supernatant by ELISA
Counter-ions that a name gives are not always drawn.
observed_property: IC50 (nM)

The cases that follow already have their IC50 on record.
# compound, unit_info, IC50
rows = [
    ("CC[C@]1(c2cc(NC(=O)c3ncccc3Cl)ccc2F)N=C(N)COCC1(F)F", "nM", 568),
    ("C[C@]1(c2cc(NC(=O)c3ccc(C#N)cn3)ccc2F)N=C(N)COCC1(F)F [Example 30, formate]", "nM", 43),
]

[a] COc1ccc(C(=O)Nc2ccc(F)c([C@@]3(C)N=C(N)COCC3(F)F)c2)nc1 [Example 90, formate]
[b] C[C@@]1(c2cc(NC(=O)c3ncccc3F)ccc2F)CCOCC(N)=N1 [Example 6, formate]
Problem: Please indicate which item has the smaller measured IC50: a versus b Your answer should be the label attached to the chosen record.
Result: b
